- Test system: U-251
- methodNotes: Cytotoxicity against human U251 cells after 48 hrs by SRB assay
- Type: functional
- runConditions: U-251, 48 h
Rule: measured TGI below 60 µM gets rule met; anything equal to or greater than 60 µM gets rule not met.

Please let me know if N[C@@H]1c2ccccc2C23CC4CC(CC(C4)[C@H]12)C3 (relative stereo) shows TGI below 60 µM.
rule met

Please let me know if NC1C2CC3CC(C2)CC1(c1ccccc1)C3 (stereo not given) shows TGI below 60 µM.
rule not met

Please let me know if N[C@H]1c2ccccc2C23CC4CC(CC(C4)[C@H]12)C3 (relative stereo) shows TGI below 60 µM.
rule met

Please let me know if Cl.NC1C2CC3CC(C2)CC1(Cc1ccc(F)cc1)C3 (stereo not given) shows TGI below 60 µM.
rule met

Please let me know if COc1ccc(CC23CC4CC(CC(C4)C2N)C3)cc1.Cl (stereo not given) shows TGI below 60 µM.
rule met

This collection of values is drawn from ChEMBL document CHEMBL2429866.
